FYI, the data here is from patent US20220378931A1.

TARGET_OR_TEST_SYSTEM: T1, dog serum albumin (dog, UniProt P49822 25-608)
T1 construct: bought protein, amine-coupled to a CM5 chip; also called Dog SA
EXPERIMENT_SUMMARY: SPR (Biacore 8K), albumin immobilised, 25 C, 1:1 kinetics
RESULT_TYPE: kon (M⁻¹ s⁻¹)

BINDER	MEASURE_UNIT	ENDPOINT_RESULT
INS Analog 26 (other, single-chain insulin B-L2-A-L1-VHH fusion; also called Ex. 26) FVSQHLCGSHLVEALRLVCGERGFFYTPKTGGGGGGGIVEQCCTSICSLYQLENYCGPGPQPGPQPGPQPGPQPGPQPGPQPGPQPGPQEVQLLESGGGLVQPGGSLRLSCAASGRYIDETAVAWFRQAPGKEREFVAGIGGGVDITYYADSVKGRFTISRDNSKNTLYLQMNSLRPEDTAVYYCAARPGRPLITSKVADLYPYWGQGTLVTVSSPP	M⁻¹ s⁻¹	170000
INS Analog 25 (other, single-chain insulin B-L2-A-L1-VHH fusion; also called Ex. 25) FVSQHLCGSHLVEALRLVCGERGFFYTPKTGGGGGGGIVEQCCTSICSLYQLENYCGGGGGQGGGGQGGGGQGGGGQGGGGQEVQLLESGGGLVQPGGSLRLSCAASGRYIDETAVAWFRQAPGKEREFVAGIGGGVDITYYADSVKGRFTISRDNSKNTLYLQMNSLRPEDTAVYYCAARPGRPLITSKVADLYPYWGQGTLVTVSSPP	M⁻¹ s⁻¹	200000
